Data provenance: patent US9167821B2

We begin with a simple list: items and their reported chromatographic logP.
# protocolDetails: physchem
# conditionNotes: pH 7.8, logp [c]
When you answer, write just the number.

Observe how each entry below is paired with its result.
O=Cc1cccc(F)c1C1CC(c2csc(C3CCN(C(=O)Cn4nc(C(F)F)cc4C(F)F)CC3)n2)=NO1 (stereo not drawn) [I-17]: 2.82
COCCOc1ccccc1C1CC(c2csc(C3CCN(C(=O)Cn4nc(C(F)F)cc4C(F)F)CC3)n2)=NO1 (stereo not drawn) [I-19]: 3.18
C=CCOc1ccccc1C1CC(c2csc(C3CCN(C(=O)Cn4nc(C(F)F)cc4C(F)F)CC3)n2)=NO1 (stereo not drawn) [I-14]: 3.65
O=C(Oc1ccccc1C1CC(c2csc(C3CCN(C(=O)Cn4nc(C(F)F)cc4C(F)F)CC3)n2)=NO1)C1CCCCC1 (stereo not drawn) [I-32]: 4.19
O=C(OCC1CC1)c1ccccc1C1CC(c2csc(C3CCN(C(=O)Cn4nc(C(F)F)cc4C(F)F)CC3)n2)=NO1 (stereo not drawn) [I-13]: 3.92
C=C(C)COc1ccccc1C1CC(c2csc(C3CCN(C(=O)Cn4nc(C(F)F)cc4C(F)F)CC3)n2)=NO1 (stereo not drawn) [I-18]: 3.92
COCCOc1cccc(C2CC(c3csc(C4CCN(C(=O)Cn5nc(C(F)F)cc5C(F)F)CC4)n3)=NO2)c1 (stereo not drawn) [I-28]: 3.04
Nc1ccccc1C1CC(c2csc(C3CCN(C(=O)Cn4nc(C(F)F)cc4C(F)F)CC3)n2)=NO1 (stereo not drawn) [I-41]: 2.71
C=CCOc1cccc(Cl)c1C1CC(c2csc(C3CCN(C(=O)Cn4nc(C(F)F)cc4C(F)F)CC3)n2)=NO1 (stereo not drawn) [I-51]: 3.71
C#CCOc1cccc(Cl)c1C1CC(c2csc(C3CCN(C(=O)Cn4nc(C(F)F)cc4C(F)F)CC3)n2)=NO1 (stereo not drawn) [I-49]: 3.34

Query O=C(Cn1nc(C(F)F)cc1C(F)F)N1CCC(c2nc(C3=NOC(c4ccccc4O)C3)cs2)CC1 (stereo not drawn) [I-9] yields chromatographic logP of 2.6

Query CC(C)=CCOc1ccccc1C1CC(c2csc(C3CCN(C(=O)Cn4nc(C(F)F)cc4C(F)F)CC3)n2)=NO1 (stereo not drawn) [I-20] yields chromatographic logP of 4.11

* * *

# System: Plasmopara viticola
# protocolDetails: Plasmopara test (grapevine)/protective
# Assay type: in vivo
# conditionNotes: grapevine plants, protective spray, 10 ppm active ingredient, evaluation 6 days after inoculation; 0% = control, 100% = no infection
quantity: efficacy (%)
Give just the numeric value; % need not be written.

Observe how each entry below is paired with its result.
CCC#CCOc1ccccc1C1CC(c2csc(C3CCN(C(=O)Cn4nc(C(F)F)cc4C(F)F)CC3)n2)=NO1 (racemic): 74
O=C(Cn1nc(C(F)F)cc1C(F)F)N1CCC(c2nc(C3=NOC(c4c(F)cccc4F)C3)cs2)CC1 (racemic): 100
CC(=O)c1cccc(C2CC(c3csc(C4CCN(C(=O)Cn5nc(C(F)F)cc5C(F)F)CC4)n3)=NO2)c1 (racemic): 99
O=C(Cn1nc(C(F)F)cc1C(F)F)N1CCC(c2nc(C3=NOC(c4cccc(O)c4)C3)cs2)CC1 (racemic): 97
CC#CCOc1cccc(C2CC(c3csc(C4CCN(C(=O)Cn5nc(C(F)F)cc5C(F)F)CC4)n3)=NO2)c1 (racemic): 93

Query C#CCOc1ccc(C2CC(c3csc(C4CCN(C(=O)Cn5nc(C(F)F)cc5C(F)F)CC4)n3)=NO2)cc1 (racemic) yields efficacy of 97

Query O=Cc1cccc(C2CC(c3csc(C4CCN(C(=O)Cn5nc(C(F)F)cc5C(F)F)CC4)n3)=NO2)c1 (racemic) yields efficacy of 99
